assay: in vitro; settings: human, hela cells, % viability
endpointLabel: viability at 28.5 h, 10 µM (%)
Reply with just the number (in %).

Prompt: # lookup: viability at 28.5 h, 10 µM of O=C(N/N=C/c1c(O)ccc2ccccc12)c1ccc(CO)nc1
Response: 84.7

Prompt: Entry to check: COCCOc1nnc(C)c2ccccc12
Response: 93.6

Prompt: Request: CC1CCN(S(=O)(=O)c2ccc(NC(=O)CCn3c(=O)oc4ccccc43)cc2)CC1
Response: 97.1

Prompt: // same read-out, input: CCc1nc2ccc(C(=O)NCCCN3CCCC3=O)cn2c1N(C)Cc1cccs1
Response: 95

Prompt: And Cc1nn(C)c(C)c1CN(C)S(=O)(=O)Cc1ccc(F)cc1 ?
Response: 86.8

Prompt: Request: COc1cccc(CN2CCCC3(C2)NCCc2c3[nH]c3cc(F)ccc23)c1 (stereo not drawn)
Response: 87.5

Prompt: Also COCOc1ccc(-c2nccnc2OC)cc1 ?
Response: 111

Prompt: // query: CC(=O)c1ccccc1-c1ccc(C(=O)NCCc2ccccn2)c(NCC2CC2)n1
Response: 98.8

Prompt: Thanks! And CC(=O)N1CCC2(CC1)CC(O)c1cc(C)c(C)cc1O2 (stereo not drawn) ?
Response: 107

Prompt: Can you handle O=[N+]([O-])c1cc(/C=N/Nc2nc(N3CCOCC3)nc(N3CCOCC3)n2)c(O)c([N+](=O)[O-])c1 next?
Response: 105

Prompt: # iterate: CC(C)N(C(=O)c1ccccc1-c1cnn2cccnc12)C(C)C
Response: 85.4

Prompt: Next molecule: CCOc1ncccc1CNc1ncnc2c1cnn2CCO
Response: 97

Prompt: Try this molecule next: Cc1nc(C2CCN(C(=O)CC3CCCC3)CC2)ncc1C(=O)Nc1ccc(Cl)cc1
Response: 97.8

Prompt: Request: O=C(c1nn2c(C(F)(F)F)cc(-c3ccccc3)nc2c1Cl)N1CCOCC1
Response: 90.4

Prompt: And the next one, Cc1nc(=O)c(-c2ccccc2)c(C)n1CCc1c[nH]cn1 ?
Response: 89.3

Prompt: Okay, and O=C(Nc1cccc(C(=O)O)c1)/C(=C\c1ccco1)NC(=O)c1ccc(Br)cc1 ?
Response: 91.3

Prompt: Please do the same for O=C1CCC2(CCN1)CCN(Cc1cccc(-c3ccco3)c1)CC2 as well.
Response: 115

Prompt: Query CCCOc1ncccc1O next
Response: 89.7

Prompt: What do you have for O=S(=O)(NCC(c1ccccc1)N1CCNCC1)c1ccccc1 (stereo not drawn) ?
Response: 105

Prompt: Quick one: COC(=O)c1ccc(N2CCN(Cc3ccc(CO)o3)C(C)C2)cc1 (stereo not drawn)
Response: 83.9

Prompt: // next record CC(C)CC(=O)NCCn1nc(-c2cccs2)oc1=O
Response: 114

###

Exercise: state measured viability at 28.5 h, 10 µM for each of the molecules provided.
test: in vitro; details: human, hela cells, % viability
Lab book: enter the figure in %, no units written.

Prompt: Give the measured viability at 28.5 h, 10 µM of Cc1cccc(C)c1NC(=O)Nc1cc(N2CCNCC2)c2occc2c1 [CBK061748C] .
Response: 82.8

Prompt: Then this molecule: Cc1cc(CNC(=O)C2CC(=O)N(Cc3ccccn3)C2)ccc1F (stereo not drawn)
Response: 77.3

Prompt: Try this molecule too: CC(C)Nc1cncc(OCCCN(C)C)n1
Response: 105

Prompt: Do the same for COc1ccc(OCC(O)CN2CCN(c3ccccn3)CC2)cc1 (stereo not drawn) [CBK278239C] please
Response: 81.8

Prompt: Can you handle Cc1ccc(C(=O)N2C[C@H]3NC(=O)c4ccccc4C(=O)[C@@]3(C)C2)cc1 next?
Response: 87.6

Prompt: Try Clc1ccc(-c2nc(-c3ccncc3)no2)c(Cl)c1 next.
Response: 83.6

###

Please respond with reported viability at 28.5 h, 10 µM for every item in the list.
test: in vitro; settings: human, hela cells, % viability
Only the number, expressed in %, is required.

Prompt: Fill in: viability at 28.5 h, 10 µM of O=C(CC1CCN(C(=O)CC2CCCCC2)CC1)Nc1ccccc1CN1CCCC1 is ___
Response: 100

Prompt: Next molecule up: NC(=O)CSc1nnc(COc2ccc(Br)cc2)n1-c1ccccc1
Response: 101

Prompt: And the next one, CN(C)S(=O)(=O)CCNC(=O)c1ccc(-c2ccccc2CO)cc1 ?
Response: 95.6

Prompt: Same for COc1ccc(-c2ccccc2NS(=O)(=O)c2ccc3c(c2)CCC(=O)N3)cc1
Response: 96.8

Prompt: Another molecule to look at: NC(=S)Nn1c(CCC(=O)O)ccc1-c1ccccc1
Response: 100

Prompt: Can you handle O=C(NCCN1CCOCC1)c1cnn2c(-c3ccccc3)cc(-c3ccccc3)nc12 next?
Response: 94.5

Prompt: Also CCN(CC)CCCCC1(C)SC(NC2CCCCCC2)=NC1=O (stereo not drawn) ?
Response: 96.9

Prompt: Follow-up entry: Cc1ccc(S(=O)(=O)N[C@H]2CO[C@H]3[C@@H]2OC[C@@H]3n2nnnc2Oc2ccccc2)cc1
Response: 82.4

Prompt: Note, next up: O=S(=O)(NCC(Sc1ccc(F)cc1)c1ccccc1)c1ccc(Cl)cc1 (stereo not drawn)
Response: 96.8

Prompt: Also CCOc1ccc(-c2cncc(N3CCN(C(=O)c4ccco4)CC3)n2)cc1 , if possible.
Response: 109

Prompt: Another molecule to look at: O=C1CC(N(O)c2ccccc2)C(=O)N1c1ccc(F)cc1 (stereo not drawn)
Response: 104

Prompt: Let us now turn to CCOC(=O)Cc1csc(SC(C)C(=O)N2CCNC2=O)n1 (stereo not drawn)
Response: 106

###

test: in vitro; conditions: human, hela cells, % viability
endpointLabel: viability at 28.5 h, 10 µM (%)
Write the answer as a number in %, unit excluded.

Prompt: For the molecule shown here, COc1ccc(C2(CN3CCC(NC(=O)C(C)C)CC3)CC2)cc1 [CBK285374] , give the reported viability at 28.5 h, 10 µM.
Response: 104

Prompt: Request: COc1ccc(-c2cc(-c3nnc(S)n3-c3ccccc3Cl)[nH]n2)cc1 [CBK265880]
Response: 100

Prompt: Would you kindly repeat that for COc1ccc(S(=O)(=O)Nc2ccccc2C(=O)O)cc1OC [CBK042368] ?
Response: 85.7

Prompt: // repeat for Cc1cc(NC(=O)CN2CCN(c3ccccc3)CC2)c2ccccc2n1 [CBK278322G] and report
Response: 99.5

Prompt: Entry to check: CCOc1ccc(C(O)Cn2c(=N)n(CCN3CCCCC3)c3ccccc32)cc1 (stereo not drawn) [CBK262913C]
Response: 111

Prompt: Also O=[N+]([O-])c1cccc(S(=O)(=O)NCc2ccccn2)c1 [CBK263669] , if possible.
Response: 98.4

Prompt: Further, for COc1cccc(C(=O)Nc2ccc(-c3noc(-c4ccccn4)n3)cc2)c1 [CBK270055] ?
Response: 110

Prompt: Let us now turn to Cc1cc(C)nc(SCC(=O)N2c3ccccc3C(C)(c3ccc(Cl)cc3)CC2(C)C)n1 (stereo not drawn) [CBK073872]
Response: 110

Prompt: What do you have for O=CN1CCc2c([nH]c3ccccc23)C12CCCN(CCOc1ccccc1)C2 (stereo not drawn) [CBK039412] ?
Response: 93.3

Prompt: Lookup O=C(NCc1nc2ccccc2[nH]1)c1cc(Br)cnc1N1CCOCC1 [CBK076278]
Response: 96.7

Prompt: Same for COc1c(C)cccc1C(=O)N1CCC(c2cc3cnccc3[nH]2)CC1 [CBK283460]
Response: 89.9

Prompt: Another molecule: Cc1ccccc1OCC(=O)Nc1ccc(CSc2ccccc2)cc1 [CBK264651]
Response: 93

Prompt: Lookup O=C(NS(=O)(=O)c1ccccc1)c1ccccc1 [CBK288429]
Response: 88.2

Prompt: Similarly, Cc1cc(COc2nccnc2OC2CCN(CC(=O)Nc3c(C)cccc3C)CC2)no1 [CBK082958T] ?
Response: 103

Prompt: One more molecule: O=[N+]([O-])c1cc(-c2nnc(-c3ccccc3)o2)ccc1-n1c(-c2ccccc2)nnc1-c1ccccc1 [CBK267341]
Response: 99.2

Prompt: And then Cc1c(C(=O)N2CCn3c(C)nnc3C2)sc2cccc(F)c12 [CBK304923] , what is it?
Response: 87.5

Prompt: And CCN1CCC2(CCC1=O)CN(Cc1noc(CC(C)C)n1)CCN2C (stereo not drawn) [CBK306971] ?
Response: 90.5

Prompt: Next up: CC(=O)N1C[C@@H]2OCC(=O)N(Cc3ccccn3)[C@@H]2C1 [CBK289245]
Response: 95.8

Prompt: Likewise for CCOc1ccc(Nc2nc(-c3ccc(F)cc3)c(CC(=O)O)s2)cc1 [CBK296064] ?
Response: 99.3

Prompt: What about COc1ccc(OC)c(N(CC(=O)N2CCN(C)CC2)S(=O)(=O)c2ccccc2)c1 [CBK264131] ?
Response: 98.8

Prompt: Likewise for CC(=O)N1CCN(C[C@@H]2C=C(C)[C@H](Cc3nnc(C(C)(C)C)o3)C[C@H]2C(C)C)CC1 [CBK289221] ?
Response: 86
